Tested on: CAL-148
method summary: normalised viability (% of control), CellTiter-Blue; higher = more viable cells (about 100 = DMSO control)
condition set: incubation time: 72 h
// NB: equality with 80% counts as not fulfilled; only normalised viability strictly below is fulfilled

compound	class
COc1cc2nccc(Oc3ccc(NC(=O)C4(C(=O)Nc5ccc(F)cc5)CC4)cc3)c2cc1OC [Cabozantinib] (300 nM)	not fulfilled
Clc1ccc(Nc2nnc(Cc3ccncc3)c3ccccc23)cc1 [Vatalanib] (3000 nM)	fulfilled
N[C@@H](CSC(c1ccccc1)(c1ccccc1)c1ccccc1)C(=O)O [S-trityl-L-cysteine] (12000 nM)	not fulfilled
Oc1nc(-c2ccc(C(F)(F)F)cc2)nc2c1CSCC2 [XAV-939] (3000 nM)	not fulfilled
COc1cc([C@@H]2c3cc4c(cc3[C@@H](O[C@@H]3O[C@@H]5CO[C@@H](C)O[C@H]5[C@H](O)[C@H]3O)[C@H]3COC(=O)[C@H]23)OCO4)cc(OC)c1O [Etoposide] (3000 nM)	fulfilled
